Field: IC50. Provide a value for each of the compounds that follow.
target: NS5B (Replizyme, UK), HCV genotype 1b Δ21 RdRp; construct: other: Replizyme enzyme; type: biochemical, hepatitis C virus; conditions: read-out: Experimental IC50, Replizyme; Replizyme enzyme
The reply should contain only the number, in µM.

Q: Look up NS5B (Replizyme, UK), HCV genotype 1b Δ21 RdRp data: IC50 of CCCCn1c(=O)c(C2=NS(=O)(=O)c3ccccc3N2)c(O)c2ccccc21 , then report it.
A: 1

Q: Look up NS5B (Replizyme, UK), HCV genotype 1b Δ21 RdRp data: IC50 of O=C(O)COc1ccc2[nH]cc(C[C@H](NC(=O)c3ccc4c(c3)nc(-c3ccoc3)n4C3CCCCC3)C(=O)O)c2c1 , then report it.
A: 1.3

Q: Look up NS5B (Replizyme, UK), HCV genotype 1b Δ21 RdRp data: IC50 of CC(C)Cn1c(=O)c(C2=Nc3ccccc3S(=O)(=O)N2)c(O)c2ccccc21 , then report it.
A: 2.3

Q: Look up NS5B (Replizyme, UK), HCV genotype 1b Δ21 RdRp data: IC50 of O=C(O)c1ccc2c(c1)nc(-c1ccccn1)n2C1CCCCC1 , then report it.
A: 69
